Measured Target: SETD2(1434-1711) (Homo sapiens)
Construct: SETD2 (1434-1711) Assay; catalogue N/A
Sequence (Q9BYW2 1434-1711): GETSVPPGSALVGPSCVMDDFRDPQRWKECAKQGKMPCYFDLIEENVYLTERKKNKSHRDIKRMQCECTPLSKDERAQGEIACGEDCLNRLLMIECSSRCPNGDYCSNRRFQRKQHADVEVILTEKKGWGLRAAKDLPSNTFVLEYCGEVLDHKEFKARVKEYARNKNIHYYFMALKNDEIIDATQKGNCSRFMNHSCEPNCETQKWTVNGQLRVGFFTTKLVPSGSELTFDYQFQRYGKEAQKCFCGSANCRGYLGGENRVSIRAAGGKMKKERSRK
Experiment Description: SETD2 (1434-1711) assay
Assay type: biochemical
Condition Label: read-out: SETD2 (1434-1711)
Assign pIC50 to each entry below.
Give bare numbers, as −log10 of the molar value.

Compound | Measured Value
Cc1ccc(F)c2cc(C(=O)NC(c3nc4ccccn4c3C)C3CC3)[nH]c12 (stereo not shown) | 6.52

Items follow; give pIC50 for each.
1. COC1(C)CCN(c2cccc(NC(=O)c3cc4c(F)ccc(C)c4[nH]3)c2)CC1
2. Cc1ccc(F)c2cc(C(=O)Nc3cccc(-c4ccc(CO)cc4)c3)[nH]c12

Reply:
1. 6.70
2. 7.00
